- Tested System: Melanocyte-stimulating hormone receptor (Homo sapiens)
- Sequence (Q01726 whole entry, looked up): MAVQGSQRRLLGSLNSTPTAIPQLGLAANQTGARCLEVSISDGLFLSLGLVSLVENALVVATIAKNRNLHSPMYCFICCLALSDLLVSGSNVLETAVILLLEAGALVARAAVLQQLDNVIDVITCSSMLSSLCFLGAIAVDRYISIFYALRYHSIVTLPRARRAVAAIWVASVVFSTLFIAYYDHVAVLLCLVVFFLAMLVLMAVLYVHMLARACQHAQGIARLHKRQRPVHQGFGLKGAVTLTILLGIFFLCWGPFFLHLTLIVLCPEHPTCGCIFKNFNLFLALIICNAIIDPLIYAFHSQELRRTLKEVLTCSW
- Assay Method Text: Displacement of [125I]-[Nle4,d-Phe7]-alpha-MSH from human MC1R expressed in HEK293 cells at 10 uM after 40 mins by gamma counting analysis relative to control
- Assay type: cell-based
Square brackets hold non-standard residues; d marks the D form. Peptide text beside a SMILES is read from it. dPhe(4-Br) = N[C@H](Cc1ccc(Br)cc1)C(=O)O; dPhe(4-F) = N[C@H](Cc1ccc(F)cc1)C(=O)O; Nle = CCCC[C@H](N)C(=O)O
Quantity Name: %max
The number alone won't do; follow it with the unit.

Short answer please: %max, Melanocyte-stimulating hormone receptor (Homo sapiens), entry CC(=O)N[C@@H](Cc1cnc[nH]1)C(=O)N[C@H](Cc1ccccc1)C(=O)N[C@@H](CCCNC(=N)N)C(=O)N[C@@H](Cc1c[nH]c2ccccc12)C(N)=O
100%

Short answer please: %max, Melanocyte-stimulating hormone receptor (Homo sapiens), entry CCCC[C@H](NC(=O)[C@@H](Cc1ccc(F)cc1)NC(=O)[C@@H]1CCCN1C(C)=O)C(=O)N[C@@H](Cc1c[nH]c2ccccc12)C(N)=O (Ac-P[dPhe(4-F)][Nle]W-NH2)
28%

Short answer please: %max, Melanocyte-stimulating hormone receptor (Homo sapiens), entry CCCC[C@H](NC(=O)[C@@H](Cc1ccc(Br)cc1)NC(=O)[C@H](Cc1cnc[nH]1)NC(C)=O)C(=O)N[C@@H](Cc1c[nH]c2ccccc12)C(N)=O (Ac-H[dPhe(4-Br)][Nle]W-NH2)
61%
